# Experimental system: pseudo-kinase domain (JH2, amino-acids 536-812) of human Wild Type JAK2 (Homo sapiens, UniProt O60674, F794H/W659A/W777A)
# Construct: pseudo-kinase domain (JH2, amino-acids 536-812 with 3 surface mutations W659A, W777A, F794H); His (C)
# Sequence (O60674 536-812 W659A/W777A/F794H): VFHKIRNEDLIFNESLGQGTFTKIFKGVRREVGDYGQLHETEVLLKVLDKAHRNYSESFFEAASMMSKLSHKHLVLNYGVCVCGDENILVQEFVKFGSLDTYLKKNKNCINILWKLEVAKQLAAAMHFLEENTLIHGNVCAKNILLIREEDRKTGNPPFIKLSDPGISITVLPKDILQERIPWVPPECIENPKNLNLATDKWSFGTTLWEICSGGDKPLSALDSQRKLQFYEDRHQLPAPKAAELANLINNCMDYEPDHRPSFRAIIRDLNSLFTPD
# Measurement protocol: JAK2 LanthaScreen JH2-WT Binding Assay
# Setup conditions: JAK2 JH2-WT 0.145 nM, 50 nM tracer, 1 hour at 25° C.; read-out: JH2 BIND WT
The compounds listed here are annotated with their IC50.

Example compounds with recorded IC50:
Which IC50 is listed for `COC(=O)N[C@@H]1CC[C@@H](n2c(=O)n(C)c3cnc(Nc4cccc(-c5ccc6c(c5)OCCO6)n4)cc32)C1` ? ≤ 0.01 µM

And what about the compound `CCOC(=O)N[C@@H]1CC[C@@H](n2c(=O)n(C)c3cnc(Nc4cc(NC(=O)OC5CCC5)cc(-c5cnn(C)c5)c4)cc32)C1` ? 0.01 to 0.1 µM

Query compound follows.
Form field: reported IC50 of `[2H]C([2H])([2H])n1c(=O)n([C@@H]2CC[C@@H](NC(=O)OC)C2)c2cc(Nc3cc(C(=O)N4CCOCC4)c4cc(C)cc(C(F)(F)F)c4n3)ncc21` ≤ 0.01 µM

----------
# Experimental system: pseudo-kinase domain (JH2, amino-acids 536-812) of human Wild Type JAK2 (Homo sapiens, UniProt O60674, F794H/W659A/W777A)
# Construct: pseudo-kinase domain (JH2, amino-acids 536-812 with 3 surface mutations W659A, W777A, F794H); His (C)
# Measurement protocol: JAK2 LanthaScreen JH2-WT Binding Assay
# Setup conditions: JAK2 JH2-WT 0.145 nM, 50 nM tracer, 1 hour at 25° C.; read-out: JH2 BIND WT
# Description: Example B. JAK2 LanthaScreen JH2-WT Binding Assay JAK2 JH2-WT binding assay utilizes pseudo-kinase domain (JH2, amino-acids 536-812 with 3 surface mutations W659A, W777A, F794H) of human Wild Type JAK2 expressed as C-terminal His-Avi-tagged, biotinylated protein in a baculovirus expression system (BPS Bioscience, Catalog #79463). […] After incubation for 1 hour at 25° C., LanthaScreen signals were read on a PHERAstar FS plate reader (BMG LABTECH). […]
Here, each record is paired with measured IC50 data.

Sample [2H]C([2H])([2H])n1c(=O)n([C@@H]2CC[C@@H](NC(=O)OC)C2)c2cc(Nc3cc(CNC4CCCC4)cc(-c4ccc5c(c4)OCCO5)n3)ncc21 [Example 65] — what was its IC50? ≤ 10 nM

---
Item under review: COC(=O)N[C@@H]1CC[C@@H](n2c(=O)n(C)c3cnc(Nc4nc(-c5ccncc5)cs4)cc32)C1 [Example 68] . Reported IC50? 500 to 1000 nM

What would you report for [2H]C([2H])([2H])n1c(=O)n([C@@H]2CC[C@](C)(NC(=O)C3CC3)C2)c2cc(Nc3cc(C(C)(C)O)cc(-c4ncc(Cl)s4)n3)ncc21 [Example 92] ? ≤ 10 nM

Please give the result for COC(=O)N[C@@H]1CC[C@@H](n2c(=O)n(C)c3cnc(Nc4ccnc(N5CCCCC5)n4)cc32)C1 [Example 66] too. ≤ 10 nM

Item: COC(=O)N[C@@H]1CC[C@@H](n2c(=O)n(C)c3cnc(Nc4cc(NC(=O)C5CCC5)cc(C5CCOCC5)c4)cc32)C1 [Example 19] ≤ 10 nM

Could you do the same for [2H]C([2H])([2H])n1c(=O)n([C@@H]2CC[C@@H](NC(=O)OC)C2)c2cc(Nc3cc(CN4CC[C@H](F)C4)cc(-c4ccc5c(c4)OCCO5)n3)ncc21 [Example 70] , please? ≤ 10 nM

----------
# Experimental system: pseudo-kinase domain (JH2, amino-acids 536-812) of human V617F mutant JAK2 (Homo sapiens, UniProt O60674, F794H/V617F/W659A/W777A)
# Construct: pseudo-kinase domain (JH2, amino-acids 536-812 with 3 surface mutations W659A, W777A, F794H); His (C)
# Sequence (O60674 536-812 V617F/W659A/W777A/F794H): as the sequence (O60674 536-812 W659A/W777A/F794H) above, with V82F counted along it
# Measurement protocol: JAK2 LanthaScreen JH2-V617F Binding Assay
# Setup conditions: JAK2 JH2-V617F 0.26 nM, 50 nM tracer, 1 hour at 25° C.; read-out: JH2 BIND V617F
pIC50: −log10 of the molar value.
Quantity kind: pIC50

Query: pIC50; subject: COC(=O)N[C@@H]1CC[C@@H](n2c(=O)n(C)c3cnc(Nc4cccc(OC5CCC(C#N)CC5)n4)cc32)C1 (some centres unmarked) 7.00 to 8.00

Another molecule: [2H]C([2H])([2H])n1c(=O)n([C@H]2CC[C@@](C)(NC(=O)C3CC3)CC2)c2cc(Nc3ccc4nn(C)c(-c5cnn(C(F)(F)F)c5)c4n3)ncc21 (single isomer, unassigned) ≥ 8.00

`COC(=O)N[C@@H]1CC[C@@H](n2c(=O)n(C)c3cnc(Nc4ccn(-c5ccncc5)n4)cc32)C1` , same question. 6.30 to 7.00

What would you report for [2H]C1(NC(=O)OC)CC[C@@H](n2c(=O)n(C([2H])([2H])[2H])c3cnc(Nc4ccc5c(n4)c(-c4cnn(C(F)(F)F)c4)cn5C4(C#N)CC4)cc32)C1 (some centres unmarked) ? ≥ 8.00

Thanks! And `[2H]C([2H])([2H])n1c(=O)n([C@@H]2CC[C@@H](NC(=O)OC)C2)c2cc(Nc3cc(-c4cnccc4C(F)(F)F)c4c(n3)n(-c3cnn(C(F)F)c3)c(=O)n4C)ncc21` ? ≥ 8.00

----------
# Experimental system: catalytic domain (JH1, amino acids 808-1132) of human JAK2 (Homo sapiens, UniProt O60674)
# Sequence (O60674 808-1132 limits assumed): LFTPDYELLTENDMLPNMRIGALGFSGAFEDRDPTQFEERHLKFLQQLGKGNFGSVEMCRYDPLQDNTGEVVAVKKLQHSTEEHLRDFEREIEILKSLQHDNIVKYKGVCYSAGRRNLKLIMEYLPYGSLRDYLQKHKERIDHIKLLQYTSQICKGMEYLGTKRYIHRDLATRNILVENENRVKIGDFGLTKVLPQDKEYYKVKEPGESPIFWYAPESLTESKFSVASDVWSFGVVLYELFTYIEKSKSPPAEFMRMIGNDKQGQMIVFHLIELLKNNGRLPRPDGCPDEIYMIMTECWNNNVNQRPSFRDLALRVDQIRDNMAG
# Measurement protocol: JAK2 HTRF Enzyme Activity Assay
# Setup conditions: ATP 30 µM, 60 minutes at 25° C.; read-out: V617F ENZ 30 UM
pIC50: −log10 of the molar value.
# pIC50 values compiled below

Identify the measured pIC50 of [2H]C([2H])([2H])n1c(=O)n([C@@H]2CC[C@](C)(NC(C)=O)C2)c2cc(Nc3cc(C(C)(C)O)cc(-c4cnc(C(F)(F)F)s4)n3)ncc21 [Example 146] for catalytic domain (JH1, amino acids 808-1132) of human JAK2 (Homo sapiens, UniProt O60674). < 6.00

One more molecule: [2H]C([2H])([2H])n1c(=O)n([C@@H]2CC[C@](C)(NC(=O)C3CC3)C2)c2cc(Nc3cc(C(C)(C)O)cc(-c4ncc(Cl)s4)n3)ncc21 [Example 92] < 6.00

***
Requested read-out pIC50, target or system catalytic domain (JH1, amino acids 808-1132) of human JAK2 (Homo sapiens, UniProt O60674), entry [2H]C1(NC(=O)OC)CC[C@@H](n2c(=O)n(C([2H])([2H])[2H])c3cnc(Nc4ccc5c(n4)c(-c4cnn(C(F)(F)F)c4)nn5CC(C)(C)O)cc32)C1 (single isomer, unassigned) [Example 125] < 6.00

And the next one, [2H]C([2H])([2H])n1c(=O)n([C@@H]2CC[C@@](C)(NC(=O)C3CC3)C2)c2cc(Nc3cc(C(=O)N4CCOCC4)c4cccc(C(F)(F)F)c4n3)ncc21 [Example 116] ? 6.30 to 7.00

----------
# Experimental system: pseudo-kinase domain (JH2, amino-acids 536-812) of human V617F mutant JAK2 (Homo sapiens, UniProt O60674, F794H/V617F/W659A/W777A)
# Construct: pseudo-kinase domain (JH2, amino-acids 536-812 with 3 surface mutations W659A, W777A, F794H); His (C)
# Measurement protocol: JAK2 LanthaScreen JH2-V617F Binding Assay
# Setup conditions: JAK2 JH2-V617F 0.26 nM, 50 nM tracer, 1 hour at 25° C.; read-out: JH2 BIND V617F
# Procedure: Example C. JAK2 LanthaScreen JH2-V617F Binding Assay JAK2 JH2-V617F binding assay utilizes pseudo-kinase domain (JH2, amino-acids 536-812 with 3 surface mutations W659A, W777A, F794H) of human V617F mutant JAK2 expressed as C-terminal His-Avi-tagged, biotinylated protein in a baculovirus expression system (BPS Bioscience, Catalog #79498). […] After incubation for 1 hour at 25° C., LanthaScreen signals were read on a PHERAstar FS plate reader (BMG LABTECH). […]
Quantity kind: IC50

Please review the entries below; each comes with its answer.
# query: IC50 of entry `COC(=O)N[C@@H]1CC[C@@H](n2c(=O)n(C)c3cnc(Nc4ccc5ncc(-c6cncn6C)n5n4)cc32)C1` 10 to 100 nM

Again, but for `CCOC(=O)c1cnc(Nc2cc(Nc3cc4c(cn3)n(C)c(=O)n4[C@@H]3CC[C@@H](NC(=O)OC)C3)cc(-c3cccc(C#N)c3)c2)o1` 100 to 500 nM

And then `COC(=O)N[C@@H]1CC[C@@H](n2c(=O)n(C)c3cnc(Nc4cccc(-c5ccc(CO)c(C)c5)n4)cc32)C1` , what is it? ≤ 10 nM

Continuing:
For the compound shown here, [2H]C1(NC(=O)OC)CC[C@@H](n2c(=O)n(C([2H])([2H])[2H])c3cnc(Nc4ccc5c(n4)c(-c4cnn(C(F)(F)F)c4)cn5C4([2H])CCOCC4)cc32)C1 (stereo partly shown) , give the reported IC50. ≤ 10 nM

Same question for `[2H]C([2H])([2H])n1c(=O)n([C@@H]2CC[C@@H](NC(=O)OC)C2)c2cc(Nc3cccc(C4CC4)n3)ncc21` please. 10 to 100 nM

Please give the result for Cn1c(=O)n(C2CCOC2)c2cc(Nc3cc(NC(=O)OC4CCC4)cc(-c4cnn(C5CC5)c4)c3)ncc21 (stereo not shown) too. 100 to 500 nM

What about [2H]C([2H])([2H])n1c(=O)n([C@@H]2CC[C@@H](NC(=O)OC)C2)c2cc(Nc3ccc4cc(NC5CCC(F)(F)C5)cc(C(F)(F)F)c4n3)ncc21 (stereo partly shown) ? ≤ 10 nM

Cool, now `COC(=O)N[C@@H]1CC[C@@H](n2c(=O)n(C)c3cnc(Nc4cc(NC(=O)C5CC5)cc(-c5cnn(C)c5)c4)cc32)C1` ≤ 10 nM

// query: `[2H]C([2H])([2H])n1c(=O)n([C@@H]2CC[C@@H](NC(=O)OC)C2)c2cc(Nc3ccc4cccc(C5(C)CC5)c4n3)ncc21` ≤ 10 nM

Cited source for all entries: patent US20240317744A1
